Molecular target: IMP-1 (Serratia marcescens)
Sequence (P52699 19-246, species assumed): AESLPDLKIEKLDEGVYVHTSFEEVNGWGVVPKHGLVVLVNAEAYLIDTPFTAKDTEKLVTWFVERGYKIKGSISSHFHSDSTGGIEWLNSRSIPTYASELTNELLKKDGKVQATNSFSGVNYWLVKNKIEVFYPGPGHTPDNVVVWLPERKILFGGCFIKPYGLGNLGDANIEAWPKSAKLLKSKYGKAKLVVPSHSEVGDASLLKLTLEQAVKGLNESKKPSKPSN
pKi: −log10 of the molar value.
Each entry falls into one class according to its pKi; the ranges are class 1 (below 6), class 2 (6 to below 7), class 3 (7 or more)

Input line: Which band does `O=C(O)c1ncsc1NS(=O)(=O)CCc1cccnc1` fall in?
Output line: class 1

Input line: Try this compound next: `Cc1nc(C(=O)O)c(NS(=O)(=O)Cc2ccccc2)s1`
Output line: class 3

Input line: How about O=C(O)c1ccccn1 [Pyridine-2-carboxylic acid, pyridine-2-carboxylic acid, reference compound] ?
Output line: class 1

Input line: Then what about the compound `Cc1c(S(=O)(=O)Nc2scnc2C(=O)O)cnn1-c1ccccc1` ?
Output line: class 2
